- System: L1210
- Method Summary: Tested for post inoculation lifespan in L1210-inoculated mice at dose 104 mg/kg administered intraperitoneally
- Format: functional, Mus musculus
- Assay Context: route intraperitoneal
Entries and their T/C

# Compound, T/C
rows = [
    ("Nc1cc2c(ncn2C2O[C@H](CO)[C@@H](O)[C@H]2O)c(S)n1 (some centres undefined)", "93%"),
    ("NSc1ncnc2c1ccn2[C@H]1C[C@H](O)[C@@H](CO)O1", "101%"),
    ("Nc1nc(S)c2ccn([C@H]3C[C@H](O)[C@@H](CO)O3)c2n1", "105%"),
    ("NSc1nc(N)nc2c1ccn2C1O[C@H](CO)[C@@H](O)[C@H]1O (some centres undefined)", "111%"),
]
